Molecular target: TLK2 (human) (UniProt Q86UE8)
Sequence (Q86UE8 whole entry, looked up): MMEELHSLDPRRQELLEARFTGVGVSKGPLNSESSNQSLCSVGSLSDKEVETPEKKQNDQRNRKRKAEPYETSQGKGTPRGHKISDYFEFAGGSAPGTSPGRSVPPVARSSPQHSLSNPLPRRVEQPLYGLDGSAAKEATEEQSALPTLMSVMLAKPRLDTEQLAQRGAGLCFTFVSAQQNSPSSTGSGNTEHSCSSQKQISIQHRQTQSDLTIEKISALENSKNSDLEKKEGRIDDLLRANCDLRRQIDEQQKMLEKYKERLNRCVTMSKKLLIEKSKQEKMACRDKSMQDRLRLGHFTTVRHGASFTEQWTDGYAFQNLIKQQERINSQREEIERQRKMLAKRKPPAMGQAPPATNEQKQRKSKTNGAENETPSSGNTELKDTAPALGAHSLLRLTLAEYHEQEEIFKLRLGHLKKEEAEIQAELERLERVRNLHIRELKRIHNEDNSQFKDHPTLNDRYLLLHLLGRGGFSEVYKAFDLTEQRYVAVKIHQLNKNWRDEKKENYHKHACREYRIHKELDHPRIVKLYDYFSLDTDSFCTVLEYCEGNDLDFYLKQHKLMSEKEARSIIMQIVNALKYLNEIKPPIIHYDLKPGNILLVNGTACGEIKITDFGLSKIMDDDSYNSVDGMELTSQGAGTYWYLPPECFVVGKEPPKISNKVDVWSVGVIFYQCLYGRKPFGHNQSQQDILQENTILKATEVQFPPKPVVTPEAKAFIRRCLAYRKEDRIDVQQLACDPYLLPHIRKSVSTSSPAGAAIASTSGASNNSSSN
Assay: KINOMEscan competition binding
Settings: compound 1.0 µM
Kindly supply the reported kinase still bound, per cent of control values for the records listed here.
One number for each entry, in %.

Chemical smiles: Cc1cc(NC(=O)c2cccc(NC(=O)/C=C/CN(C)C)c2)ccc1Nc1nccc(-c2cccnc2)n1
Tested system: TLK2 (human) (UniProt Q86UE8)
Quantity kind: kinase still bound, per cent of control
Unit string: %
Experimental value: 100
--
Chemical smiles: CN(C)C/C=C/C(=O)Nc1cccc(C(=O)Nc2ccc(Nc3nccc(-c4cccnc4)n3)cc2)c1
Tested system: TLK2 (human) (UniProt Q86UE8)
Quantity kind: kinase still bound, per cent of control
Unit string: %
Experimental value: 92
--
Chemical smiles: CN(C)C/C=C/C(=O)Nc1cccc(C(=O)Nc2ccc(Nc3nccc(/C(C#N)=C4\Nc5ccccc5S4)n3)cc2)c1
Tested system: TLK2 (human) (UniProt Q86UE8)
Quantity kind: kinase still bound, per cent of control
Unit string: %
Experimental value: 100

# input for lookup
kinase still bound, per cent of control reading for "CN(C)C/C=C/C(=O)Nc1cccc(C(=O)Nc2ccc(Nc3nccc(-c4c(-c5ccccc5)nn5ccccc45)n3)cc2)c1" : 100
